meta.source: a melting point compilation (Tetko et al.; mined from patent text by program, amines drawn as free bases though some values may be those of a salt)

measurement label: melting point (°C)

>>> print(df.to_string())
                                smiles_data  measurement_label  result_value
0  Cc1cccc(NC(=O)NCC(=O)N(CC(=O)N2CCC(C)(C)CC2)c2ccccc2)c1      melting point           205
1     CCCCc1nc2cc(C)c(C)cc2n1Cc1ccc(C#N)cc1      melting point           160
2     Cc1c(C#N)[nH]n(-c2ccc(Cl)c(Cl)c2)c1=O      melting point           210
3  CCN(CC)c1c([N+](=O)[O-])cc(C#N)c(N)c1[N+](=O)[O-]      melting point           146
